These entries and their values trace back to the supplement of paper PMC6757056.

B1: library; a variant is named by its letters at N, in order (parent)
chain: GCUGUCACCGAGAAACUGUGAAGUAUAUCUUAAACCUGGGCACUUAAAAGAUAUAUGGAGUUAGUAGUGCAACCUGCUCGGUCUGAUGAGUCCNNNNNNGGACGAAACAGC

Variants of: B1
PROTOCOL NOTES: normalized RNA/DNA level without ligand (relative to sTRSVctl = 100) (log10 (% of sTRSVctl)); HEK293T; ligand: cyclic di-GMP (c-di-GMP-II aptamer); higher = less ribozyme self-cleavage, higher mRNA level
RECORDED CONDITIONS: reporter: mCherry (pCS4076), ligand present: no
PARAMETER: normalized RNA/DNA level without ligand (log10)
Give only the figure.

Problem: Quick one: normalized RNA/DNA level without ligand (log10) for CCGUUC ?
Result: 1.6

Problem: Please give the result for GUUCGA too.
Result: 1.6

Problem: Would you mind doing CCAGUA as well?
Result: 1.5

Problem: What do you have for AAAGAG ?
Result: 1.44

Problem: Same question, CCCAGA this time
Result: 1.55

Problem: Can you check CUGCCG next?
Result: 1.78

Problem: And what about the variant GCUCUA ?
Result: 1.64

Problem: Same read-out for UGUAUG ?
Result: 1.75
